Test system: velvetleaf
Assay: Test C pre-/postemergence herbicide test
Assay type: in vivo, Abutilon theophrasti
Conditions: Preemergence, 31 g ai/ha; scale 0 to 100, 0 is no effect and 100 is complete control
Quantity name: Velvetleaf plant response rating

Illustrative cases are given below, each with its answer.
CN1CC(c2cccc(C(F)(F)F)c2)C(C(=O)Nc2cccc(F)c2F)C1=O (centres unmarked) [Compound 305] = 25
O=C1NC[C@H](c2cccc(C(F)(F)F)c2)[C@H]1C(=O)Nc1cccc(F)c1F [Compound 206] = 0
O=C1NCC(c2ccc(Cl)cc2)C1C(=O)Nc1cccc(F)c1F (centres unmarked) [Compound 218] = 0
O=C1NCC(c2ccc(C(F)(F)F)cc2)C1C(=O)Nc1cccc(F)c1F (centres unmarked) [Compound 80] = 0

Would you kindly look at the next entry?
What measured Velvetleaf plant response rating goes with O=C1NCC(c2ccc(C(F)(F)F)cc2)C1C(=O)Nc1ccccc1F (centres unmarked) [Compound 231] ?
10

* * *

System: barnyardgrass
Assay: Test C flooded paddy test
Format: in vivo, Echinochloa crus-galli
Details: Flood; 250 g ai/ha; scale 0 to 100
Description: Plant species in the flooded paddy test consisted of rice (Oryza sativa), sedge, umbrella (small-flower umbrella sedge, Cyperus difformis), ducksalad (Heteranthera limosa), and barnyardgrass (Echinochloa crus-galli) grown to the 2-leaf stage for testing. […] Treated plants and controls were maintained in a greenhouse for 13 to 15 days, after which time all species were compared to controls and visually evaluated. […]
Entries and their measured Plant response rating, Barnyardgrass follow.

Illustrative cases are given below, each with its answer.
O=C1NCCC1C(=O)N(c1ccc(F)c(F)c1)c1ccccc1F (stereo not drawn) = 55
CC1(C)NC(=O)C(C(=O)Nc2ccccc2F)C1c1ccc(F)c(F)c1 (stereo not drawn) = 0
O=C1NCC(c2ccccc2)C1(Br)C(=O)Nc1ccccc1F (stereo not drawn) = 40
O=C1NCC(c2cccc(F)c2)C1C(=O)Nc1ccccc1C(F)(F)F (racemic) = 0
O=C1NCC(c2ccc(C(F)(F)F)cc2)C1C(=O)Nc1cccc(F)c1F (stereo not drawn) = 20

Would you kindly look at the next entry?
What measured Plant response rating, Barnyardgrass goes with O=C1NCC(c2ccc(Cl)c(Cl)c2)C1C(=O)Nc1ccccc1F (racemic) ?
0

* * *

Tested on: barley, winter
Test: Test D pre-/postemergence herbicide test
Assay type: in vivo, Hordeum vulgare
Settings: Preemergence; 250 g ai/ha; Barley, Winter; scale 0 to 100
Entries and their measured Plant response rating follow.

Illustrative cases are given below, each with its answer.
O=C1NC[C@H](c2cccc(C(F)(F)F)c2)[C@H]1C(=O)Nc1ccccc1F = 35
O=C1NCC(c2ccc(Cl)c(F)c2)C1C(=O)Nc1cccc(F)c1F (stereo not shown) = 25

What measured Plant response rating goes with O=C1NCC(c2ccc(F)c(C(F)(F)F)c2)C1C(=O)Nc1cccc(F)c1F (racemic) ?
55

Subsequent entry: O=C1NCC(c2ccc(C(F)(F)F)cc2)C1C(=O)Nc1cccc(F)c1F (stereo not shown)
25

* * *

Test system: windgrass
Assay: Test D pre-/postemergence herbicide test
Type: in vivo, Apera spica-venti
Conditions: Preemergence; 31 g ai/ha; scale 0 to 100 (0 no effect, 100 complete control)
Flag rule - Plant response rating, Windgrass less than 40 flags TRUE; the remaining entries get FALSE.

Below 40 on Plant response rating, Windgrass? Entry O=C1NCC(c2ccc(Cl)c(F)c2)C1C(=O)Nc1cccc(F)c1F (stereo not drawn)
TRUE

Subsequent entry: O=C1NCC(c2ccc(C(F)(F)F)cc2)C1C(=O)Nc1ccccc1F (stereo not drawn)
FALSE

Subsequent entry: O=C1NC[C@H](c2cccc(C(F)(F)F)c2)[C@H]1C(=O)Nc1ccccc1F
FALSE

Subsequent entry: O=C1NCC(c2ccc(F)c(F)c2)C1C(=O)Nc1ccccc1C(F)(F)F (racemic)
TRUE

Subsequent entry: O=C1NCC(c2ccc(F)c(C(F)(F)F)c2)C1C(=O)Nc1cccc(F)c1F (racemic)
FALSE

Subsequent entry: O=C1NCC(c2ccc(C(F)(F)F)cc2)C1C(=O)Nc1cccc(F)c1F (racemic)
FALSE

* * *

Entries and their measured Plant response rating, Wheat follow.
Tested on: wheat
Assay: Test A pre-/postemergence herbicide test
Type: in vivo, Triticum aestivum
Conditions: Postemergence, 125 g ai/ha; 0 to 100 scale, 0 no effect, 100 complete control
Output spec: single numeric token, no unit.

Illustrative cases are given below, each with its answer.
O=C1NCC(c2ccc3ccccc3c2)C1C(=O)Nc1cccc(F)c1F (racemic) = 0
Cc1cc(C2CNC(=O)C2C(=O)Nc2ccccc2F)ccc1F (racemic) = 0
O=C1NCC(c2ccc(Cl)c(Cl)c2)C1C(=O)Nc1ccccc1F (racemic) = 0
O=C1NCC(c2cccc(OC(F)(F)C(F)F)c2)C1C(=O)Nc1ccccc1Cl (racemic) = 0
O=C1NCC(c2cccc(OC(F)(F)C(F)F)c2)C1C(=O)Nc1cccc(F)c1F (racemic) = 50
COc1cc(C2CNC(=O)C2C(=O)Nc2ccc(F)cc2F)ccc1F (racemic) = 0
CC1NC(=O)C(C(=O)Nc2ccccc2C(F)(F)F)C1c1ccc(F)c(F)c1 (mixture of isomers) = 0
O=C1NCC(c2ccc(Cl)c(F)c2)C1C(=O)Nc1cccc(F)c1F (stereo not drawn) = 0

What measured Plant response rating, Wheat goes with Cc1ccccc1NC(=O)C1C(=O)NCC1c1cccc(C(F)(F)F)c1 (racemic) ?
20

Subsequent entry: O=C1NCC(c2ccc(F)c(F)c2)C1C(=O)Nc1cccc(F)c1F (racemic)
50

Subsequent entry: Cc1ccc(C2CNC(=O)C2C(=O)Nc2ccc(F)c(F)c2F)cc1F (racemic)
0

Subsequent entry: O=C1NCC(c2ccc(F)c(F)c2)C1C(=O)Nc1ccccn1 (stereo not drawn)
0

Subsequent entry: O=C1NCC(c2cccc(C(F)(F)F)c2)C1C(=O)Nc1ccccn1 (racemic)
0

Subsequent entry: O=C1NCC(c2ccc(F)cc2)C1C(=O)Nc1ccc(F)c(F)c1F (racemic)
20

Subsequent entry: O=C1NCC(c2cc(F)c(F)cc2F)C1C(=O)Nc1cccc(F)c1F (stereo not drawn)
0

* * *

Tested on: corn
Test: Test C pre-/postemergence herbicide test
Type: in vivo, Zea mays
Settings: Preemergence, 31 g ai/ha; scale 0 to 100, 0 is no effect and 100 is complete control
Entries and their measured Corn plant response rating follow.
Output spec: single numeric token, no unit.

Illustrative cases are given below, each with its answer.
O=C1NCC(c2ccc(F)cc2)C1C(=O)Nc1ccc(F)c(F)c1F (racemic) [Compound 120] = 0
CN1CC(c2ccc(F)c(F)c2)C(C(=O)Nc2cccc(F)c2F)C1=O (centres unmarked) [Compound 303] = 10
CN1CC(c2ccc(C(F)(F)F)cc2)C(C(=O)Nc2cccc(F)c2F)C1=O (centres unmarked) [Compound 306] = 40
O=C1NCC(c2cccc(OC(F)F)c2)C1C(=O)Nc1ccccc1F (centres unmarked) [Compound 323] = 0
O=C1NCC(c2ccc(C(F)(F)F)cc2)C1C(=O)Nc1cccc(F)c1F (centres unmarked) [Compound 80] = 0
O=C1NC[C@H](c2cccc(C(F)(F)F)c2)[C@H]1C(=O)Nc1ccccc1F [Compound 204] = 45

Would you kindly look at the next entry?
Form field - read-out: Corn plant response rating; system: corn; submitted item: O=C1NCC(c2cccc(C(F)(F)F)c2)C1C(=O)Nc1ccc(F)c(F)c1F (centres unmarked) [Compound 345]
40

* * *

Tested on: monochoria
Experiment: Test F flood (paddy) test
Type: in vivo, Monochoria vaginalis
Conditions: 125 g ai/ha, 21 d, scale 0-100
Entries and their measured Plant response rating, Monochoria follow.
Output spec: single numeric token, no unit.

Illustrative cases are given below, each with its answer.
O=C1NC[C@H](c2cccc(C(F)(F)F)c2)[C@H]1C(=O)Nc1cccc(F)c1F = 90
O=C1NC[C@H](c2cccc(C(F)(F)F)c2)[C@H]1C(=O)Nc1ccccc1F = 95
O=C1NCC(c2ccc(F)c(F)c2)C1C(=O)Nc1ccccc1Cl (racemic) = 50

Would you kindly look at the next entry?
What measured Plant response rating, Monochoria goes with O=C1NCC(c2ccc(F)c(F)c2)C1C(=O)Nc1cccc(F)c1F (stereo not shown) ?
90

* * *

Entries and their measured Plant response rating, Ragweed follow.
System: ragweed
Experiment: Test C pre-/postemergence herbicide test
Type: in vivo, Ambrosia elatior
Conditions: Preemergence, 125 g ai/ha; scale 0 to 100 (0 no effect, 100 complete control)
Output spec: single numeric token, no unit.

O=C1NCC(c2ccc(F)c(F)c2)C1C(=O)Nc1cccc(F)c1F (racemic) [Compound 101] = 5
O=C1NC[C@H](c2cccc(C(F)(F)F)c2)[C@H]1C(=O)Nc1ccccc1F [Compound 204] = 100
O=C1NCC(c2ccc(F)c(F)c2)C1C(=O)Nc1cccc(F)c1F (stereo not shown) [Compound 17] = 30

Would you kindly look at the next entry?
What measured Plant response rating, Ragweed goes with CN1CC(c2cccc(C(F)(F)F)c2)C(C(=O)Nc2cccc(F)c2F)C1=O (stereo not shown) [Compound 305] ?
35

* * *

Entries and their measured Ragweed plant response rating (0 to 100 scale, 0 is no effect, 100 is complete control) follow.
Tested on: ragweed
Experiment: Test A pre-/postemergence herbicide test
Format: in vivo, Ambrosia elatior
Settings: Postemergence, 500 g ai/ha

O=C1NCC(c2cccc(C(F)(F)F)c2)C1C(=O)Nc1nnc(C(F)(F)F)s1 (racemic) = 0
O=C1NCC(c2cccc(OC(F)(F)C(F)F)c2)C1C(=O)Nc1cccc(F)c1F (racemic) = 70
Cc1ccc(NC(=O)C2C(=O)NCC2c2cccc(C(F)(F)F)c2)cc1C(F)(F)F (racemic) = 0
O=C1NCC(c2cccc(OC(F)F)c2)C1C(=O)Nc1ccccc1Br (stereo not shown) = 20
O=C1NCC(c2cccc(S(F)(F)(F)(F)F)c2)C1C(=O)Nc1ccccc1F (racemic) = 30

Form field - read-out: Ragweed plant response rating (0 to 100 scale, 0 is no effect, 100 is complete control); system: ragweed; submitted item: CS(=O)(=O)c1ccccc1NC(=O)C1C(=O)NCC1c1cccc(C(F)(F)F)c1 (racemic)
60

Subsequent entry: O=C1NCC(c2cccc(C(F)F)c2)C1C(=O)Nc1cccc(F)c1F (racemic)
50
